# study-system: ALKBH6 (Homo sapiens, UniProt Q3KRA9)
# Construct: His-tag; made in house
# Sequence (Q3KRA9 whole entry): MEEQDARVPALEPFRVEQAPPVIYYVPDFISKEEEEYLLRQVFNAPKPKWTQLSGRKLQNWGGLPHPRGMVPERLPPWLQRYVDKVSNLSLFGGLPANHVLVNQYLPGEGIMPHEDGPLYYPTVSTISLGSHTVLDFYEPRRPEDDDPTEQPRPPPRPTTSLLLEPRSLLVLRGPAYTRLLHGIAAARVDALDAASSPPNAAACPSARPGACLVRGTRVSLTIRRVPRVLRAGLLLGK
# assay-text: FDH-coupled formaldehyde release demethylation assay
# Assay type: biochemical
# cond: FDH-coupled assay, tested as substrate
reported-endpoint: formaldehyde release / demethylation by ALKBH6

Cn1c[n+]([C@@H]2O[C@H](COP(=O)([O-])OP(=O)(O)OP(=O)(O)O)[C@@H](O)[C@H]2O)c2nc(N)[nH]c(=O)c21 [7me-GTP] = comparatively less
Cn1cnc2c(ncn2[C@@H]2O[C@H](COP(=O)(O)OP(=O)(O)OP(=O)(O)O)[C@@H](O)[C@H]2O)c1=N [1me-ATP] = comparatively less
Cn1cnc2c(ncn2[C@@H]2O[C@H](CO)[C@@H](O)[C@H]2O)c1=N [1me-adenosine, reference compound] = could not demethylate
Cn1c[n+]([C@@H]2O[C@H](CO)[C@@H](O)[C@H]2O)c2nc(N)[nH]c(=O)c21 [7me-guanosine, reference compound] = could not demethylate
